TEST: Mycobacterium tuberculosis growth inhibition, primary screen (AID 1259343)
CONDITION_CONTEXT: at 10 µM, active compounds read high
Screen size: about 6,200 compounds; about 2,900 (47%) were called active. The set was probably picked from earlier hits. Some of the results follow.
Could you please report measured inhibition for the items listed next?
Answers are plain numbers, in %.

Study these solved cases before continuing.
Cc1nnsc1C(=O)N1CCCC(C(=O)Nc2cccc(-c3ccc(F)cc3)c2)C1 (stereo unspecified) : 17.2
O=C(Cc1cc(-c2ccc3c(c2)OCO3)on1)NCc1cccs1 : 90.9

Batch lookup, inhibition per entry.
1. Oc1cccc(OCc2cccc(C(F)(F)F)c2)c1
2. COC(=O)c1sc2c(c1N)CCC(C(C)(C)C)C2 (stereo unspecified)
3. Cc1cc(C)cc(OCCN(C)C(=O)Nc2ccc(F)cc2)c1
4. ON=Cc1cccc(OCc2ccccc2)c1
5. CC(=O)NCCC(=O)Nc1ccc(Oc2ccc(C#N)cc2)c(Cl)c1
6. O=C(NCc1ccoc1)N1CCN(Cc2ccc(Cl)s2)CC1

Result:
1: 89.2; 2: 29.1; 3: 30.4; 4: -7.21; 5: -2.79; 6: 2.21

Batch lookup, inhibition per entry.
1. CC(C)CNc1nn2cc(C(C)(C)C)nc2s1
2. COC(=O)CCc1c(C)nc2c(c(-c3ccco3)nn2C2CCS(=O)(=O)C2)c1C (stereo unspecified)
3. Cc1ccc(OCCN(C)C(=O)CCc2nnc(CCc3c[nH]c4ccccc34)o2)cc1
4. CC1Cc2cc(-c3cc(CO)no3)ccc2O1 (stereo unspecified)
5. CC(C)N1C(=O)C(=NN2C(=O)CSC2=S)c2ccccc21
6. Cc1ccc(C(=O)Nc2ccc(OCC#N)cc2)cc1C

Result:
43.8
24.9
44.4
-11.9
-42.2
22

Batch lookup, inhibition per entry.
1. Cc1ccc(OCc2cc(C(=O)NCc3cc4ccccc4[nH]3)no2)cc1C
2. CC(NC(=O)c1ccc(-c2ccccc2F)s1)C(=O)N1CCCCC1 (stereo unspecified)
3. O=C(O)Cc1cc(-c2ccc3c(c2)OCCO3)on1
4. C=CCOc1cccc(C2c3c(oc4ccc(C)cc4c3=O)C(=O)N2c2nccs2)c1 (stereo unspecified)
5. N#Cc1ccc(NC(=O)Cc2cccc(C(F)(F)F)c2)cc1Cl
6. Cc1ncc(CN2CCCC(C(=O)Nc3cccc(-c4ccc(F)cc4)c3)C2)s1 (stereo unspecified)
7. CC(C)c1cc(C(=O)N2CCCC(C(=O)c3ccc4ccccc4c3)C2)on1 (stereo unspecified)
8. COC(=O)c1c(N)sc2c1CCC(C(C)(C)C)C2 (stereo unspecified)

Result:
1: 24.7; 2: 18.5; 3: 73.2; 4: 1.57; 5: 8.71; 6: 61.6; 7: 15.6; 8: -34.2

Batch lookup, inhibition per entry.
1. O=C1C(=Cc2ccc(F)cc2)CSc2ccc(F)cc21
2. CN(CCOc1ccccc1)C(=O)c1cc(Br)c[nH]1
3. CC(=O)Nc1ccc(OCc2ccc(Br)cc2F)cc1

Result:
1. 21.3
2. 101
3. 62.5

Reference source: PubChem BioAssay AID1259343
